Data provenance: patent US20240059789A1

tested-system: T1, Human PSMA on prostate cancer cell lines (C4-2B, 22RV1) (human, UniProt Q04609 1-750)
T1 construct: Endogenous PSMA of the human cell lines; also called PSMA+ cells; PSMA-expressing cell lines
T1 sequence (Q04609 whole entry): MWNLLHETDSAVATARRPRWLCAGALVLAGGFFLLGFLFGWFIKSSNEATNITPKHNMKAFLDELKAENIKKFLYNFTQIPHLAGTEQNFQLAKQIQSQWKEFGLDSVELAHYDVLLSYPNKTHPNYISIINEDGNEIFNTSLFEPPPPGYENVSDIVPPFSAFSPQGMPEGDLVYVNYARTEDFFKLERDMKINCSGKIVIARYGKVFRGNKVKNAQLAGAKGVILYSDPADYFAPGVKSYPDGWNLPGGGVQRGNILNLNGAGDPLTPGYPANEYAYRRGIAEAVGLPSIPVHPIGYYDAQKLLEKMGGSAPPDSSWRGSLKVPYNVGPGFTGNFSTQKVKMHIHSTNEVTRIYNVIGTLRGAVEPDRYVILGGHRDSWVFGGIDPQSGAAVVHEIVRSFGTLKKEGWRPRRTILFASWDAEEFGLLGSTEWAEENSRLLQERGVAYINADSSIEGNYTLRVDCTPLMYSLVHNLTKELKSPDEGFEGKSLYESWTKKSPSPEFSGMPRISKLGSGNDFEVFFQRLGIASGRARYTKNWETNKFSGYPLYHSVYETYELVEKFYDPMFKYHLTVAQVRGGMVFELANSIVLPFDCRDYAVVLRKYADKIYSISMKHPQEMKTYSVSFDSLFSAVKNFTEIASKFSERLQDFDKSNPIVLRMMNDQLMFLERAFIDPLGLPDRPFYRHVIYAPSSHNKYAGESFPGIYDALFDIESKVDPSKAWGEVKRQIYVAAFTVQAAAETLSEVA
measurement-notes: flow cytometry on C4-2B cells
Response field label takes 1 when EC50 is strictly below 20 nM and -1 in all other cases.

These recorded examples may help you get a feel for the data.
binder	discrete-label
PSMB895 (antibody, human IgG1, lambda, L234A L235A, V domains shown) VH: EVQLVESGGGLVQPGGSLRLSCAASGFTFSSYAMSWVRQAPGKGLEWVSAISGGIGSTYYADSVKGRFTISRDNSKNTLWLQMNSLRAEDTAVYYCAKDGVGATPYYFDYWGQGTLVTVSS VL: QSVLTQPPSVSAAPGQKVTISCSGSSSNIGNNYVSWYQQLPGTAPKLLIYDNNKRPSGIPDRFSGSKSGTSATLGITGLQTGDEADYYCGTWDSSLSAYVFGTGTKVTVLG	1
PSMB892 (antibody, human IgG1, lambda, L234A L235A, V domains shown) VH: EVQLVESGGGVVQPGRSLRLSCAASGFTFITYGMHWVRQAPGKGLEWVAVVSFDESNKYYADSVKGRFTISRDNSKNTLYLQMNSLRAEDTAVYYCARALRDGNNWDYFNGMDVWGQGTTVTVSS VL: QSVLTQPPSVSGAPGQRVTISCTGSSSNIGADYDVHWYQHLPGTAPKLLIYGNSNRPSGVPDRFSGSKSGTSASLAITGLQAEDETDYYCQSYDSSLSGWVFGGGTKLTVLG	-1
PSMB896 (antibody, human IgG1, lambda, L234A L235A, V domains shown) VH: EVQLVESGGGLVQPGGSLRLSCAASGFTFSSYAMSWVRQAPGKGLEWVSAISGGIGSTYYADSVKGRFTISRDNSKNTLWLQMNSLRAEDTAVYYCAKDGVGATPYYFDYWGQGTLVTVSS VL: QSVLTQPPSVSAAPGQKVTISCSGSSSNIGINYVSWYQQLPGTAPKLLIYDNNKRPSGIPDRFSGSKSGTSATLGITGLQTGDEADYYCGTWDSSLSAVVFGGGTKLTVLG	-1
PSMB897 (antibody, human IgG1, lambda, L234A L235A, V domains shown) VH: EVQLVESGGGLVQPGGSLRLSCAASGFTFSSYAMSWVRQAPGKGLEWVSAISGGSGSTYYADSVKGRFTISRDNSKNTLYLQMNSLRAEDSAVYYCAKDGVGATPYYFDYWGQGTLVTVSS VL: QSVLTQPPSVSAAPGQKVTISCSGSSSNIGNNYVSWYQQLPGTAPKLLIYDNNKRPSGIPDRFSGSKSGTSATLGITGLQTGDEADYYCGTWDSSLSAYVFGTGTKVTVLG	1

Now examine the next entry.
Report whether reported EC50 is lower than 20 nM (strictly) for PSMB899 (antibody, human IgG1, lambda, L234A L235A, V domains shown) VH: EVQLVESGGGLVQPGGSLRLSCTASGFIFSSYAMSWVRQAPGKGLEWVSAISGGYGAPYYADTVKGRFTISRDNSKNTLYLQMNSLRAEDTAVYYCAKDGVGATPYYFDDWGQGILVTVSS VL: QSVLTQPPSVSAAPGQKVTISCSGSSSNIGNNYVSWYQQLPGTAPKLLIFDNNKRPSGIPDRFSGSKSGTSATLGITGLQTGDEADYYCGTWDSSLSAYVFGTGTKVTVLG 1
